- tested-system: mu opiate receptor (MOR) (Rattus norvegicus)
- Construct: from tissue; host or cells: striatum (membrane preparation)
- Sequence (P33535 whole entry): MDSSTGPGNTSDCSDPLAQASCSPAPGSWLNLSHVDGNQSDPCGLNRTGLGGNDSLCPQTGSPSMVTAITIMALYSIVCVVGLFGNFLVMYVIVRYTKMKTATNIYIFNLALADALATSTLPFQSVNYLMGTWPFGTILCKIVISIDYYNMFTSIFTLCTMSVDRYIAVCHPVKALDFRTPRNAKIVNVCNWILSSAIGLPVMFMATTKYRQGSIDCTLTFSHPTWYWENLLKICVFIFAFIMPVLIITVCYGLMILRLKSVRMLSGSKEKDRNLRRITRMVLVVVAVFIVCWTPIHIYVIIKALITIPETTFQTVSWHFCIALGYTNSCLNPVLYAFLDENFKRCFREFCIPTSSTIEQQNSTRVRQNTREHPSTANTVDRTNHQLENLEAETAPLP
- Format: biochemical
- measurement-setup: [35S]GTPγS binding to Gαo in striatal membranes; compound 1 μM
Each record is given Y if its reported Concentration of FLNA-Binding Compound as Agonist 1 μM is strictly below 200%. Records at or above 200% are given N.

>>> cat("CC1CN(CC(O)COc2ccc(Cl)cc2)CC(C)O1 (stereo not shown)")
"N"

Ask: Take the compound O=S(=O)(c1ccc(Br)cc1F)N1CCC2(CC1)OCCN2S(=O)(=O)c1ccc(Br)cc1F and say whether its Concentration of FLNA-Binding Compound as Agonist 1 μM is less than 200%.
Result: N

Ask: Lab note: Concentration of FLNA-Binding Compound as Agonist 1 μM threshold 200%. Does this compound come in strictly under it? COc1ccc(CCC(=O)CC2c3c(cc4c(c3OC)OCO4)CC[N+]2(C)C)c(OC)c1 (stereo not shown)
Result: N

Ask: hey, is Concentration of FLNA-Binding Compound as Agonist 1 μM for COc1ccc(CCC(O)CC2c3c(cc4c(c3OC)OCO4)CCN2C)cc1 (stereo not shown) lower than 200% or not?
Result: N

Ask: Please let me know if CC1CCC(C(C)C)C(OCC(O)CN2CCc3ccccc32)C1 (stereo not shown) shows Concentration of FLNA-Binding Compound as Agonist 1 μM below 200%.
Result: N

Ask: Problem: For the compound CCN(CC)CC(O)COC1CC(C)CCC1C(C)C (stereo not shown) , is Concentration of FLNA-Binding Compound as Agonist 1 μM under 200%?
Result: N

Ask: Just wondering, is Concentration of FLNA-Binding Compound as Agonist 1 μM of COc1cccc(OC)c1C(=O)CC1c2c(cc3c(c2OC)OCO3)CC[N+]1(C)C (stereo not shown) below 200%?
Result: N

Ask: A record lists COc1ccc(C(=O)CC2c3c(cc4c(c3OC)OCO4)CC[N+]2(C)C)c(O)c1 (stereo not shown) . Is its Concentration of FLNA-Binding Compound as Agonist 1 μM below 200%?
Result: Y
